Origin of values: patent US10815241B2

Known mRNA at 1 μM (% control) MEIS1 of a selection of compounds
tested on: MEIS1; assay: Test 3: inhibition of mRNA transcription, MEIS1 in MV4;11 cells; assay type: cell-based; details: MV4;11 cells, 1 μM, 20 to 24 hours, relative to GAPDH
Measure: mRNA at 1 μM (% control) MEIS1

* CC(C)N(C(=O)c1cc(F)ccc1Oc1cncnc1N1CC2(CN(C(=O)[C@H]3NC4CCC3CC4)C2)C1)C(C)C [Example 11] | 13.1
* CC(C)N(C(=O)c1cc(F)ccc1Oc1cncnc1N1CC2(CCN(C(=O)[C@H]3N[C@H]4CC[C@@H]3C[C@@H]4CC3CC3)CC2)C1)C(C)C [Example 1] | 11.8
* CC(C)N(C(=O)c1cc(F)ccc1Oc1cncnc1N1CC2(CN(C(=O)[C@H]3N[C@H]4CC[C@@H]3C[C@@H]4CC3CC3)C2)C1)C(C)C [Example 3] | 11.9
* CC(C)N(C(=O)c1cc(F)ccc1Oc1cncnc1N1CC2(CCN(C(=O)[C@H]3N[C@H]4CC[C@@H]3C[C@H]4CC3CC3)CC2)C1)C(C)C [Example 4] | 18.0
* C=C1C[C@@H]2CC[C@H]1[C@@H](C(=O)N1CCC3(CC1)CN(c1ncncc1Oc1ccc(F)cc1C(=O)N(C(C)C)C(C)C)C3)N2 [Example 6] | 15.1
* C=C1C[C@H]2CC[C@@H]1N[C@@H]2C(=O)N1CC2(C1)CN(c1ncncc1Oc1ccc(F)cc1C(=O)N(C(C)C)C(C)C)C2 [Example 9] | 17.0

###

biological target: UniProt:Q12809; test: Test 4: hERG inhibition (QPatch HT, CHO cells stably expressing hERG)
Measure: gap between RS4; 11 proliferation IC50 and hERG current IC50

• CC(C)N(C(=O)c1cc(F)ccc1Oc1cncnc1N1CC2(CN(C(=O)[C@H]3N[C@H]4CC[C@@H]3[C@@H](F)C4)C2)C1)C(C)C [Example 10] = more than 100 fold
• CC(C)N(C(=O)c1cc(F)ccc1Oc1cncnc1N1CC2(CCN(C(=O)[C@H]3N[C@H]4CC[C@@H]3C(=O)C4)CC2)C1)C(C)C [Example 12] = more than 100 fold
• CC(C)N(C(=O)c1cc(F)ccc1Oc1cncnc1N1CC2(CCN(C(=O)[C@H]3N[C@H]4CC[C@@H]3[C@H](F)[C@@H]4CC3CC3)CC2)C1)C(C)C [Example 19] = more than 100 fold

###

biological target: Menin-MLL binding (His-Menin1-615 / MLL1-172-FLAG) (Homo sapiens (Human)); test: Test 1: inhibition of the Menin-MLL binding (HTRF); settings: Menin-MLL binding inhibition
Sequence (O00255 other isoform, or with tags, fused parts or gaps): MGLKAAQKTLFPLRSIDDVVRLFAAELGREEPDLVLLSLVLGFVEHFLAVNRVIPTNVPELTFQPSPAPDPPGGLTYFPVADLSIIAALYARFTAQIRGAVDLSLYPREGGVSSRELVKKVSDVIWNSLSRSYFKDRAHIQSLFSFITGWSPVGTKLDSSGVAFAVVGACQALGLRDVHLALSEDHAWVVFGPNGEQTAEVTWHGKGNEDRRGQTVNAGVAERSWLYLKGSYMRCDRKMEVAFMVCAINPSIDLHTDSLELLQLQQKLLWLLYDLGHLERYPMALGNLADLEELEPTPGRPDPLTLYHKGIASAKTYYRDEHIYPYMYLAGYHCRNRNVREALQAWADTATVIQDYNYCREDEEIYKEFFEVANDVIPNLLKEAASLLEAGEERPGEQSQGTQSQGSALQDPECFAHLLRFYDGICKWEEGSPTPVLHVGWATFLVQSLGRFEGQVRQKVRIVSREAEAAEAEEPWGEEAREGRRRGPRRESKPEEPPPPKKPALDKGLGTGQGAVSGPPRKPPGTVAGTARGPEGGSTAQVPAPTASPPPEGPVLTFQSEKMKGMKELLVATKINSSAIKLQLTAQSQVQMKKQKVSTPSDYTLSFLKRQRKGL
Known IC50 of a selection of compounds
Measure: IC50 (nM)

- CC(C)N(C(=O)c1cc(F)ccc1Oc1cncnc1N1CC2(CN(C(=O)[C@H]3N[C@H]4CC[C@@H]3C[C@H]4CC3CC3)C2)C1)C(C)C: 4.1
- CC(C)N(C(=O)c1cc(F)ccc1Oc1cncnc1N1CC2(CCN(C(=O)[C@H]3N[C@H]4CC[C@@H]3C[C@H]4CC3CC3)CC2)C1)C(C)C: 7.1
- CC(C)N(C(=O)c1cc(F)ccc1Oc1cncnc1N1CC2(CCN(C(=O)[C@H]3N[C@H]4CC[C@@H]3C[C@@H]4CC3CC3)CC2)C1)C(C)C: 5.3

###

tested on: RS4; 11 cells; test: Test 2: inhibition of cell proliferation, RS4;11; format: cell-based; conditions: RS4;11 cells, 7 days, PrestoBlue cell viability
pIC50: −log10 of the molar value.
Measure: pIC50

• CC(C)N(C(=O)c1cc(F)ccc1Oc1cncnc1N1CC2(CCN(C(=O)[C@H]3N[C@H]4CC[C@@H]3[C@@H](F)[C@H]4CC3CC3)CC2)C1)C(C)C = 7.70

###

Known IC50 of a selection of molecules
molecular target: hERG (human Ether-a-go-go Related Gene) (Homo sapiens (Human)); assay: Test 4: hERG inhibition (QPatch HT, CHO cells stably expressing hERG)
Sequence (Q12809 whole entry): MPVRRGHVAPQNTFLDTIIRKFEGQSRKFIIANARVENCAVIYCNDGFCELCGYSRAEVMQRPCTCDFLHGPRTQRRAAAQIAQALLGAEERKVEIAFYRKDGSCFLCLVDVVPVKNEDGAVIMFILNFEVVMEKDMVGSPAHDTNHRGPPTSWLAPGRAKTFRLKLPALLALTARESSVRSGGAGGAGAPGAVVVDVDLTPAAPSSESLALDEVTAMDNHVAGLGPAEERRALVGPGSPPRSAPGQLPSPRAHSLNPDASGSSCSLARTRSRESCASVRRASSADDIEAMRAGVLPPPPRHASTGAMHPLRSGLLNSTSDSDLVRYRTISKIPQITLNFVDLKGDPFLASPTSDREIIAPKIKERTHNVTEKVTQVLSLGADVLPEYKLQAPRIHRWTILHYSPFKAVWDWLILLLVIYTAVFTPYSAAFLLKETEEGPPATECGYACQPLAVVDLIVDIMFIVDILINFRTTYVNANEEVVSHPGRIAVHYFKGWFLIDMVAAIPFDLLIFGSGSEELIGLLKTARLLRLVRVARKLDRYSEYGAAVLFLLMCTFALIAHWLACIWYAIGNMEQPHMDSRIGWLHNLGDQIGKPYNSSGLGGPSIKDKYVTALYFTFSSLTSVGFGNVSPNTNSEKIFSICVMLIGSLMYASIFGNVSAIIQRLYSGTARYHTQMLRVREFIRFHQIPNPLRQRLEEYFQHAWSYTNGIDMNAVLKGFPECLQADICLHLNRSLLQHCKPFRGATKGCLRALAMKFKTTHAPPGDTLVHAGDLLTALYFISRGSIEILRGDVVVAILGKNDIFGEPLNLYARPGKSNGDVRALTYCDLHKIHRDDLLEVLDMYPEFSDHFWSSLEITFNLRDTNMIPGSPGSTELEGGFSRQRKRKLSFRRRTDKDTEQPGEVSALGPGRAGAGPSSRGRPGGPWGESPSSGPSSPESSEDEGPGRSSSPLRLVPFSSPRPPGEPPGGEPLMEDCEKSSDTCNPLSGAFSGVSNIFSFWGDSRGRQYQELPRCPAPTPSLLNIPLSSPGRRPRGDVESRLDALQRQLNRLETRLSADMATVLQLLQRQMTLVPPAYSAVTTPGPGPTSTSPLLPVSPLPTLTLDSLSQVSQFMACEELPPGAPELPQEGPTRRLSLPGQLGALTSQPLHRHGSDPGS
Measure: IC50 (µM)

* CC(C)N(C(=O)c1cc(F)ccc1Oc1cncnc1N1CC2(CN(C(=O)[C@H]3N[C@H]4CC[C@@H]3C[C@@H]4CC3CC3)C2)C1)C(C)C | 6.2
* CC(C)N(C(=O)c1cc(F)ccc1Oc1cncnc1N1CC2(CCN(C(=O)[C@H]3N[C@H]4CC[C@@H]3C[C@@H]4CC3CC3)CC2)C1)C(C)C | 4
* CC(C)N(C(=O)c1cc(F)ccc1Oc1cncnc1N1CC2(CN(C(=O)[C@H]3N[C@H]4CC[C@@H]3C[C@H]4CC3CC3)C2)C1)C(C)C | 7.9
* CC(C)N(C(=O)c1cc(F)ccc1Oc1cncnc1N1CC2(CCN(C(=O)[C@H]3N[C@H]4CC[C@@H]3C[C@H]4CC3CC3)CC2)C1)C(C)C | 5.8
* C=C1C[C@@H]2C[C@H]1[C@@H](C(=O)N1CCC3(CC1)CN(c1ncncc1Oc1ccc(F)cc1C(=O)N(C(C)C)C(C)C)C3)N2 | 46.1
* CC(C)N(C(=O)c1cc(F)ccc1Oc1cncnc1N1CCC2(CCN(C(=O)[C@H]3N[C@H]4CC[C@@H]3CC4)C2)C1)C(C)C (stereo partly shown) | 11.8
* C=C1C[C@H]2CC[C@@H]1N[C@@H]2C(=O)N1CCC2(CC1)CN(c1ncncc1Oc1ccc(F)cc1C(=O)N(C(C)C)C(C)C)C2 | 12.3

###

tested on: RS4; 11 cells; test: Test 2: inhibition of cell proliferation, RS4;11; type: cell-based; settings: Homo sapiens; RS4;11 cells, 7 days, PrestoBlue cell viability
Measure: IC50 (µM)

• CC(C)N(C(=O)c1cc(F)ccc1Oc1cncnc1N1CC2(CN(C(=O)[C@H]3N[C@H]4CC[C@@H]3C[C@@H]4CC3CC3)C2)C1)C(C)C = 0.03
• CC(C)N(C(=O)c1cc(F)ccc1Oc1cncnc1N1CC2(CCN(C(=O)[C@H]3N[C@H]4CC[C@@H]3C(=O)C4)CC2)C1)C(C)C = 0.25
• C=C1C[C@H]2CC[C@@H]1N[C@@H]2C(=O)N1CCC2(CC1)CN(c1ncncc1Oc1ccc(F)cc1C(=O)N(C(C)C)C(C)C)C2 = 0.09

###

target: hERG (human Ether-a-go-go Related Gene) (Homo sapiens (Human)); assay: Test 4: hERG inhibition (QPatch HT, CHO cells stably expressing hERG); settings: read-out: hERG inhibition IC50; hERG current, CHO cells
Measure: IC50 (µM)

- CC(C)N(C(=O)c1cc(F)ccc1Oc1cncnc1N1CC2(CCN(C(=O)[C@H]3N[C@H]4CC[C@@H]3[C@@H](F)[C@H]4CC3CC3)CC2)C1)C(C)C: 11.7

###

Known hERG/RS4; 11 of a selection of compounds
molecular target: UniProt Q12809; assay: Test 4: hERG inhibition (QPatch HT, CHO cells stably expressing hERG); details: hERG IC50 divided by RS4;11 proliferation IC50
Measure: hERG/RS4; 11

• CC(C)N(C(=O)c1cc(F)ccc1Oc1cncnc1N1CC2(CN(C(=O)[C@H]3N[C@H]4CC[C@@H]3C[C@@H]4CC3CC3)C2)C1)C(C)C [Example 3] = 620
• C=C1C[C@@H]2C[C@H]1[C@@H](C(=O)N1CCC3(CC1)CN(c1ncncc1Oc1ccc(F)cc1C(=O)N(C(C)C)C(C)C)C3)N2 [Example 18] = >2095
• CC(C)N(C(=O)c1cc(F)ccc1Oc1cncnc1N1CC2(CCN(C(=O)[C@H]3N[C@H]4CC[C@@H]3C(=O)C4)CC2)C1)C(C)C [Example 12] = >400
• CC(C)N(C(=O)c1cc(F)ccc1Oc1cncnc1N1CC2(CN(C(=O)[C@H]3NC4CCC3CC4)C2)C1)C(C)C [Example 11] = >500
• CC(C)N(C(=O)c1cc(F)ccc1Oc1cncnc1N1CC2(CCN(C(=O)[C@H]3N[C@H]4CC[C@@H]3C[C@H]4CC3CC3)CC2)C1)C(C)C [Example 4] = 145
• CC(C)N(C(=O)c1cc(F)ccc1Oc1cncnc1N1CC2(CCN(C(=O)[C@H]3N[C@H]4CC[C@@H]3C[C@@H]4CC3CC3)CC2)C1)C(C)C [Example 1] = >400

###

Known IC50 of a selection of molecules
tested on: MOLM-13 cells; assay: Test 2: inhibition of cell proliferation, MOLM-13; format: cell-based; settings: Homo sapiens, 7 days, PrestoBlue cell viability
Measure: IC50 (nM)

* C=C1C[C@@H]2CC[C@H]1[C@@H](C(=O)N1CCC3(CC1)CN(c1ncncc1Oc1ccc(F)cc1C(=O)N(C(C)C)C(C)C)C3)N2 [Example 6] | 30
* CC(C)N(C(=O)c1cc(F)ccc1Oc1cncnc1N1CC2(CCN(C(=O)[C@H]3N[C@H]4CC[C@@H]3C[C@@H]4CC3CC3)CC2)C1)C(C)C [Example 1] | 20
* C=C1C[C@@H]2C[C@H]1[C@@H](C(=O)N1CCC3(CC1)CN(c1ncncc1Oc1ccc(F)cc1C(=O)N(C(C)C)C(C)C)C3)N2 [Example 18] | 40
* CC(C)N(C(=O)c1cc(F)ccc1Oc1cncnc1N1CC2(CCN(C(=O)[C@H]3N[C@H]4CC[C@@H]3C[C@H]4CC3CC3)CC2)C1)C(C)C [Example 4] | 70
* CC(C)N(C(=O)c1cc(F)ccc1Oc1cncnc1N1CC2(CCN(C(=O)[C@H]3N[C@@H]4CC[C@H]3C4)CC2)C1)C(C)C [Example 16] | 40
* CC(C)N(C(=O)c1cc(F)ccc1Oc1cncnc1N1CC2(CN(C(=O)[C@H]3N[C@H]4CC[C@@H]3C[C@H]4CC3CC3)C2)C1)C(C)C [Example 5] | 30
* CC(C)N(C(=O)c1cc(F)ccc1Oc1cncnc1N1CC2(CN(C(=O)[C@H]3N[C@H]4CC[C@@H]3[C@@H](F)C4)C2)C1)C(C)C [Example 10] | 30
